- Assay name: Oral bioavailability in cynomolgus monkey at 1 mg/kg using crystalline form
- Type: ADME, organism-based, Macaca fascicularis
- Measurement conditions: in vivo
Observable: bioavailability (%)
Write the value in % as a bare number.

Prompt line: Endpoint output: bioavailability of NS(=O)(=O)c1cncc(-c2nc(NCc3ccccn3)c3c(-c4ccccc4)cccc3n2)c1 . Value?
Response line: 54

----------
- Experimental target: Voltage-gated inwardly rectifying potassium channel KCNH2 (Homo sapiens, UniProt Q12809)
- Sequence (Q12809 whole entry): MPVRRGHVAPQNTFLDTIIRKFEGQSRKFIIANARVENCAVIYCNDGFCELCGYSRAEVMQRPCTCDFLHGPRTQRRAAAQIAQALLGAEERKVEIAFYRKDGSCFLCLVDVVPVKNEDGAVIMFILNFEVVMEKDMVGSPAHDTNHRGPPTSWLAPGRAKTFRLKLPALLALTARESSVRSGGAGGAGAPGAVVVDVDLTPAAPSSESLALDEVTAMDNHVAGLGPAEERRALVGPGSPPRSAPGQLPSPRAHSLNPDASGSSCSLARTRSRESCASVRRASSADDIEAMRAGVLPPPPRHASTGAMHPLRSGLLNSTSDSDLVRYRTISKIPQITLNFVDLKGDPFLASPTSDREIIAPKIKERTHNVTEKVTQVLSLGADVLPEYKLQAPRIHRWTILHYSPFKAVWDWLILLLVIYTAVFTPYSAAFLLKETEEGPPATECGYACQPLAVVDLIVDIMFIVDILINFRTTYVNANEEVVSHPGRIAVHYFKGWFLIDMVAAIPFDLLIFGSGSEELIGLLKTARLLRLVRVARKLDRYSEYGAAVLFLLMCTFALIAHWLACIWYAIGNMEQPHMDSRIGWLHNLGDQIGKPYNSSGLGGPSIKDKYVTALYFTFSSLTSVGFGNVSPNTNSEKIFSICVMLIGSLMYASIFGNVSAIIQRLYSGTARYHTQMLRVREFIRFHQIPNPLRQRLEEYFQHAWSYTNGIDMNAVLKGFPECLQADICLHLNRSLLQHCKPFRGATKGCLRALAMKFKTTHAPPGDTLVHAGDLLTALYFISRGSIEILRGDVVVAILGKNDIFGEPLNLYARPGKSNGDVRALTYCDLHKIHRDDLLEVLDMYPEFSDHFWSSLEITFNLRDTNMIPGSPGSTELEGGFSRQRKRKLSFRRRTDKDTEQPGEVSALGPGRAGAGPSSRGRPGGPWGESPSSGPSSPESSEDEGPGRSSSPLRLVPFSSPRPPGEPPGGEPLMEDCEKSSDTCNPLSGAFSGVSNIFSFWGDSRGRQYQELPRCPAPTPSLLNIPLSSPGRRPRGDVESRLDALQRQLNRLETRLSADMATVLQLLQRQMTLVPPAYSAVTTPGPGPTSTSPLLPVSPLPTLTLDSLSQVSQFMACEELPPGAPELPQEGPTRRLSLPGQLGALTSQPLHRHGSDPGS
- Assay name: Inhibition of human ERG expressed in HEK293 cells by flux assay
Observable: pIC50
Reminder that pIC50 is minus the log10 of a molar concentration.

Prompt line: Which measured pIC50 value corresponds to NS(=O)(=O)c1ccc(CCNc2nc(-c3cncnc3)nc3cccc(-c4ccccc4)c23)cc1 ?
Response line: 5.25

Hey, just so you know, these numbers are from ChEMBL document CHEMBL4014310.
